Tested on: RXF 393
Assay: NCI tumour cell line growth inhibition, 48 h
The source made the active and inactive calls. No stated cut-off is given here; in the data, active = GI50 up to about 1.1 µM and inactive = higher.
assay_endpoint: GI50

Record excerpt, results attached:
Lab request: please report GI50 under test system RXF 393 for `O=C([C@H](O)[C@@H](O)c1ccc(Br)cc1)C12CC3CC(CC(C3)C1)C2`
52.7 µM (inactive)

Query Nc1ncnc2c1ncn2C1OC(CSCc2ccc(Cl)cc2)C(O)C1O (stereo not given) next
21.2 µM (inactive)

Query `CC(C)(C)OC(=O)c1cccnc1/C=N/O` next
> 100 µM (inactive)

Query CN(C)c1ccc(/C=C(\NC(=O)c2ccccc2)C2=NC(CCC(=O)O)C(=O)O2)cc1 (stereo not given) next
> 50 µM (inactive)

Query O=C(/C=C1/Nc2ccc([N+](=O)[O-])cc2NC1O)c1cccc([N+](=O)[O-])c1 (stereo not given) next
23.6 µM (inactive)

Others:
Lab request: please report GI50 under test system RXF 393 for `C/C(=N\Nc1nc2cc(F)ccc2s1)c1ccccn1`
1.26 µM (inactive)

Query `CNc1nc(=O)c(C#N)c(-c2ccc(C)cc2)s1` next
> 100 µM (inactive)

Query COc1ccc(C2S/C(=C\c3ccc([N+](=O)[O-])cc3)C(=O)N2NC(=O)Cc2ccccc2)cc1 (stereo not given) next
25.6 µM (inactive)

Query O=C(c1ccccc1)N1C2C3CC(OCc4ccccc4)(OCc4ccccc4)C(O3)C21 (stereo not given) next
> 100 µM (inactive)

Query `CC(C)NC(=O)OCc1c2c(n(C)c1COC(=O)NC(C)C)-c1cc(Cl)c(Cl)cc1CC2` next
21.7 µM (inactive)

###

GI50: recorded values
Test system: COLO 205
Test: NCI tumour cell line growth inhibition, 48 h
Activity calls are given as the source filed them. Rule as the data show it: active = GI50 up to about 1.1 µM and inactive = higher.

Lab request: please report GI50 under test system COLO 205 for `CN(C)c1ccc(/C=N/c2ccc(-c3nc4ccccc4o3)cc2)cc1`
30.5 µM (inactive)

Query CC(C)C(=O)Nc1nc2c(ncn2C2OC(CO)C(O)C2O)c(=O)[nH]1 (stereo unspecified) next
> 100 µM (inactive)

Others:
Lab request: please report GI50 under test system COLO 205 for COc1cc(O)c2c(=O)c(OC)c(-c3ccc(OC)c(OC)c3)oc2c1 [RETUSIN]
> 100 µM (inactive)

Query `CO/N=C(\C)c1ccc(Nc2nc3ccccc3c3occc23)cc1` next
14.5 µM (inactive)

###

Tested on: SNB-75
Test: NCI tumour cell line growth inhibition, 48 h
Active and inactive are the calls of the source. Cut-off read from the data, not from the text of the source: active = GI50 up to about 1.1 µM and inactive = higher.
GI50: recorded values

Record excerpt, results attached:
Query: GI50; subject: `C[N+](C)(N)CCC[N+](C)(C)N`
> 100 µM (inactive)

Query C=C1C(=O)OC2CC3(CO3)C3C(O)C(O)CC3(C)CC12 (centres undefined) next
49.8 µM (inactive)

Query `O=C(OCc1ccccc1)N1CCN(C(=O)OCc2ccccc2)CCN(C(=O)OCc2ccccc2)CCN(C(=O)OCc2ccccc2)CCN(C(=O)OCc2ccccc2)CC1` next
30.9 µM (inactive)

Query `CCC(=O)c1cc(C(=O)C(=S)SC)cc(C(=O)C(=S)SC)c1` next
> 100 µM (inactive)

Others:
Query: GI50; subject: N#Cc1cc2c(n(C3OC(CO)C(O)C(O)C3O)c1=S)CCCCC2 (centres undefined)
> 100 µM (inactive)

Query `CSc1nc(-c2ccccc2)c2c(n1)-c1ccccc1CC2` next
> 100 µM (inactive)

Query CCOc1cc2c(cc1OC(C)=O)C(=O)CC[C@H]1C3CC[C@H](OC(C)=O)[C@@]3(C)CC[C@H]21 (some centres undefined) next
> 100 µM (inactive)

Query `CCCCN(Cc1ccccc1)/C(=N/C#N)N(Cc1ccccc1)Cc1ccccc1` next
21.1 µM (inactive)

Query `CCCCCN(CCCCC)C(=O)[C@@H](CCC(=O)OCc1ccccc1)NC(=O)c1cc2ccccc2[nH]1` next
> 100 µM (inactive)

###

Test system: SF-268
Test: NCI tumour cell line growth inhibition, 48 h
Calls of active or inactive are those of the source. Cut-off read from the data, not from the text of the source: active = GI50 up to about 1.1 µM and inactive = higher.
assay_endpoint: GI50

Record excerpt, results attached:
Query: GI50; subject: `c1ccc2cc3c(cc2c1)OP1(Oc2cccc4cccnc24)(O3)Oc2cc3ccccc3cc2O1`
4.81 µM (inactive)

Query Fc1ccc2nc3n(c2c1)C(c1c(Cl)cccc1Cl)SC3 (stereo not given) next
> 100 µM (inactive)

Others:
Query: GI50; subject: CC1SC2=NC3=C(c4ccccc4C3=O)C(c3ccc(Br)cc3)N2C1=O (stereo not given)
37.9 µM (inactive)

Query `Sc1nn2c(COc3cccc(OCc4nnc5sc(S)nn45)c3)nnc2s1` next
> 100 µM (inactive)

Query `COc1c(O)cc2oc(-c3ccc(O)cc3)cc(=O)c2c1O` next
46.6 µM (inactive)

Query CC(C)C(=O)Nc1nc2c(ncn2C2OC(CO)C(O)C2O)c(=O)[nH]1 (stereo not given) next
> 100 µM (inactive)

Query `COCOc1cc(OCOC)cc(C(=O)Oc2ccccc2)c1` next
> 100 µM (inactive)

###

System: HCT-116
Assay: NCI tumour cell line growth inhibition, 48 h
Activity calls are given as the source filed them. No stated cut-off is given here; in the data, active = GI50 up to about 1.1 µM and inactive = higher.
GI50: recorded values

Query: GI50; subject: C=C(C)C(=O)CC[C@@H](C)[C@H]1[C@@H](OC2OC(CO)C(O)C(O)C2O)C[C@@]2(C)[C@@H]3C[C@H](O)C4C(C)(C)[C@@H](OC5OC(CO)C(O)C(O)C5O)CC[C@@]45C[C@@]35CC[C@]12C (stereo partly specified)
> 100 µM (inactive)

Others:
Query: GI50; subject: `COc1ccc2cc(C(=O)CCC(=O)O)ccc2c1`
> 100 µM (inactive)

Query `COC(=O)[C@H]1C=C[C@@H](C)n2c(=O)c3ccccc3c(=O)n21` next
> 100 µM (inactive)

Query `O=C([C@H](O)[C@@H](O)c1ccc(Br)cc1)C12CC3CC(CC(C3)C1)C2` next
10.4 µM (inactive)

Query O=C(c1ccc(Cl)cc1)C1OC12C(=O)Nc1ccccc12 (stereo unspecified) next
3.61 µM (inactive)

Query `Clc1ccc(/C=N/c2ccc(Oc3ccc(Cl)cc3)c(Cl)c2)cc1` next
17.9 µM (inactive)

Query `N#Cc1ccc(/C=[N+](/C=c2ccc(=C=[N-])cc2)N(CCO)C2=NCCN2)cc1` next
> 100 µM (inactive)

Query CC(=O)Nc1nc(C)c(S(=O)(=O)NC(=O)NC2NC(=O)NC2=O)s1 (stereo unspecified) next
> 100 µM (inactive)

Query `CN(C)CC/C(=N\Nc1ccc(Cl)cc1Cl)c1ccccc1` next
13.8 µM (inactive)

Query `O=Cc1ccc2c(c1-c1c(C=O)ccc3c1OCO3)OCO2` next
> 100 µM (inactive)

Query COC(=O)N1CC2C3C4CC(C(c5ccccc5)=C4c4ccccc4)C3C21 (stereo unspecified) next
11.9 µM (inactive)

###

Test system: T47D
Assay: NCI tumour cell line growth inhibition, 48 h
Activity calls are given as the source filed them. Cut-off read from the data, not from the text of the source: active = GI50 up to about 1.1 µM and inactive = higher. Where a SMILES comes first, the peptide text is derived from it. The star is where a group is joined. Boc = CC(C)(C)OC(=O)*; OSu = O=C1CCC(=O)N1O*
GI50: recorded values

Record excerpt, results attached:
Query: GI50; subject: `COCOc1cc(OCOC)cc(C(=O)Oc2ccccc2)c1`
57.4 µM (inactive)

Query C=C1C(=O)OC2CC(C)C3CC(O)OC(OCC)C3(C)CC12 (stereo not given) next
16.6 µM (inactive)

Query `O=c1[nH]ncc2[nH]c3c4ccccc4ccc3c12` next
52.8 µM (inactive)

Query `CNc1nc(=O)c(C#N)c(-c2ccc(C)cc2)s1` next
> 100 µM (inactive)

Query `O=C(c1ccccc1)N1C(=S)NC(=N/c2ccccc2)/C1=N\c1ccccc1` next
> 100 µM (inactive)

Query CC(NC(=O)C(NC(=O)OC(C)(C)C)C(C)C)C(=O)NCC(=O)ON1C(=O)CCC1=O (stereo not drawn) (Boc-Val-Ala-Gly-OSu; configuration not given here) next
> 100 µM (inactive)

Query `Cc1ccc(S(=O)(=O)NC(=O)NC2=NC(C)(C)N(c3ccc(Cl)c(Cl)c3)C(N)=N2)cc1` next
10.4 µM (inactive)

Query O=C(/C=C/c1ccc(O)c(O)c1)OCc1ccccc1 [BENZYL CAFFEATE] next
12.1 µM (inactive)

Query `COc1ccc2cc(C(=O)CCC(=O)O)ccc2c1` next
> 100 µM (inactive)

Query OC(c1ccccc1)c1c(-c2ccccc2)oc(-c2ccccc2)c1C(O)c1ccccc1 (stereo not given) next
6.28 µM (inactive)

Others:
Query: GI50; subject: `CC(/C=C/C(O)=C1/C(=O)CNC1=O)=C\[C@@H](C)[C@H]1O[C@@]2(C)O[C@H](C(=O)[C@@H]3O[C@@]32C)[C@@H]1C`
15.1 µM (inactive)

Query `OCCNc1ncnc2[nH]cnc12` next
> 100 µM (inactive)

Query COC(=O)C(Cc1ccccc1)C(=O)NC(CNC(=O)OCc1ccccc1)C(=O)OCc1ccccc1 (stereo not given) next
36.1 µM (inactive)

Query `O=C(c1ccccc1)c1ccc(C(c2c(O)c3ccccc3oc2=O)c2c(O)c3ccccc3oc2=O)cc1` next
34.2 µM (inactive)
